# measurement_description: yeast display, Sf9 membrane polyspecificity reagent, FACS + sequencing; frameworks hold sequencing errors
attribute_measured: polyreactivity (PSR sort gate)

query_sequence=QVQLVESGGGLVQAGGSLGLSCAASGFIFDAYAMGWYRQAPGKERELVAGISIGGRTNYADSVKGRFTISRDNAKNTVYLQMNSLKPEDTAVYYCAARNYRYYYGSYYRGPITNYEYWGQGTQVTVSS attribute_measured="polyreactivity (PSR sort gate)" test_value="low polyreactivity"
query_sequence=QVQLVESGGGLVQAGCSLRLSCAASGRIFNWYGMGWYRQAPGKERELVAGITYSASRTYYADSVKGRFTISRDNAKNTVYLQMNSLKPEDTAVYYCAAGRYHRDDGYDYWGQGTQVTVSS attribute_measured="polyreactivity (PSR sort gate)" test_value="low polyreactivity"

###

# measurement_description: yeast display, Sf9 membrane polyspecificity reagent, FACS + sequencing; frameworks hold sequencing errors
attribute_measured: polyreactivity (PSR sort gate)

Take a look at these entries with their results.
query_sequence=QVQLVESGGGLVQAGGSLRLSCAASGSTFVKYAMGWYRQAPGKERELVAAISWSGGRTYYADSVKGRFTISRDNAKNTVYLQMNSLKPEDTAVYYCAARSWYDRYPYYSWGQGTQVTVSS attribute_measured="polyreactivity (PSR sort gate)" test_value="high polyreactivity"
query_sequence=QVQLVESGGGLLQAGGSLRLSCSATGSLFEGNGMGWYRQAPGKERELVASITRSGGSTYYADSVKGRFTISRDNAKNTVYLQINSLIPEDTAVYYCAAYPVRYYNQYDYWGLGTQVTVSS attribute_measured="polyreactivity (PSR sort gate)" test_value="low polyreactivity"
query_sequence=QVQLVESGGGLVQAGGSLRLSCAASGSTFVAYAMGWYRQAPGKERELVAAISSVGRTNYADSVKGRFTISRDNAKYTVYLQMNSLKPEDTAVYYCAAVYVDRRKRSYYWGQGTQVTVSS attribute_measured="polyreactivity (PSR sort gate)" test_value="high polyreactivity"
query_sequence=QVQLVESGGGLVQAGGSLRLSCAASGFIFVPYAMGWYRQAPGKERELVASITYTGGSTYYADSVKGRFTISRDNAKNTVYLQMNSLKPEDTAVYYCASRYQYWRLHMDYWGQGTPVTVSS attribute_measured="polyreactivity (PSR sort gate)" test_value="low polyreactivity"

# context switch: different sequence, same polyreactivity (PSR sort gate)
INPUT: // polyreactivity (PSR sort gate) lookup, key: QVQLVESGGGLVQAGGSLRLSCAASGRTFSRYAMGWYRQAPGKERELVASMTRRGGRTYYADSVKGRFTISRDNAKNTVYFQMTSLKPEDTAGYYCNATSQIPWSSYYYWGQGTQVTVSS
OUTPUT: high polyreactivity

###

# measurement_description: yeast display, Sf9 membrane polyspecificity reagent, FACS + sequencing; frameworks hold sequencing errors
attribute_measured: polyreactivity (PSR sort gate)

query_sequence=QVQHVESGGGLVQAGGSLRLSCAASGRTFSWYVMGWYRQSPGKERELVAAISWNGGRTYYADSVKGRFTISRDNAKNTVYLQMNSLKPEDTAVYYCAAKSYHGYPFDYWGQGTQVTVSS attribute_measured="polyreactivity (PSR sort gate)" test_value="high polyreactivity"
query_sequence=QVQLVETGGGLVQAGGSLRLSCAASGRTFGIYAMGWYRQAPGKERELVAANTGRGGSTHYADSVKGRFTISRDNAKNTVYLQMNSLKPEDTEVYYGAADYRYNRGITSNKDYDYWGQGTQVTVSS attribute_measured="polyreactivity (PSR sort gate)" test_value="low polyreactivity"
query_sequence=QVQLVESGGGLVQAGGSLLLSCAASGSIFGWYAMGWYRQAPGKERELVAAISSSGDSTYYADSVKGRFTISRDNAKNTVYLQMNSLKPEDTAVYYCAAEYWPSSPSAPGFDYDHWGQGTQVTVSS attribute_measured="polyreactivity (PSR sort gate)" test_value="low polyreactivity"
query_sequence=QVQLVESGGGLVQAGGSLRLSCAASGSTFVSYAMGWYRQAPGKERELVAAISSGGGSTYYADSVKGRFTISRDNAKNTVYLQMNSLKPEDTAVYYCAARGYAYRAQYGYWGQGTQVTVSS attribute_measured="polyreactivity (PSR sort gate)" test_value="high polyreactivity"
query_sequence=QVQLVESGGGLVQAGGSLRLSCAASGSIFWWNAMGWYRQAPGKERELVAAISYSGGSTYYADSVKGRFTISRDNAKKTVYLQRNSLKPEDTAVYYCAATKFRYYGYDYWGQGTQVTVSS attribute_measured="polyreactivity (PSR sort gate)" test_value="low polyreactivity"
query_sequence=QVQLVESGGGLVQAGGSLRLSCAASGNTFPYYAMGWYRQAPGKEREYVATIDRGDGSTYYADSVKGRFTISRDNAKNTVYLQMNSVKPEDTAVYYCAKLRGAFIVPGRGYPIYYYWGQGTQVTVSS attribute_measured="polyreactivity (PSR sort gate)" test_value="high polyreactivity"
query_sequence=QVQLVESGGGLVQAGGSLRLSCAASGRIFSRNALGWYRQAPGKERELVAAISWRGGRTYYAVSVKGRFAISRDNAKNTVYLQMNSLKPEDTAVYYCNAVSFGRARHGGPVYGYDYWGQGTQVTVSS attribute_measured="polyreactivity (PSR sort gate)" test_value="high polyreactivity"
query_sequence=QDQLVESGGGLVQPGGSLRLSCAASGTIIPRSAMGWYRQATGKERELVAAISQRGGSTFYADSVKWRFTISRDNAKNTVYLQMNRLKPEVTAVYYCAADPGVQRGHIDRMYYWGQGTQVTVSS attribute_measured="polyreactivity (PSR sort gate)" test_value="high polyreactivity"

INPUT: I am curious: what polyreactivity (PSR sort gate) value has been reported for QVQLVESGGGLVQAGGSLRLSCAASGSIFQYVYAMGWYRQAPGKERELVATITWSGGTTYYADSVKGRFTISRDNAKNTVYLQMHSLKPEDTADYYCAAESIYYPVAQYYYSFEYWGQGTQVTVSS ?
OUTPUT: low polyreactivity

INPUT: Entry to check: QVQLVESGGGLVQAGGSLRLSCAASGSTFSYFAMGWYRQAPGKERELVAAISWNGGSTYYADSVKGRFTISRDNAKNTVYLQMNSLKPEDTAVYYCAAHPAYRDSWGEYDYWGQGTQVTVSS
OUTPUT: low polyreactivity

INPUT: Queued: QDQLGESGGGLLQAGGSLRLSCAASGRTFRYYAMGSYRQEPGKERELVAAISISGGNTYYADSVKGRFTISRDHAKNTVYLQMNSLKPEDTAVYYCAASFSSRFYRARVDYWGQGTQVTVSS
OUTPUT: high polyreactivity

INPUT: Now give it for QVQLVESGGGLVQAGGSLRLSCAASGSIFDGSAMGWYRQAPGKERELVASISSGGSTNYADSVKGRFTISRDNAKNTVYLQMNSMKPEDTAVYYCAAEWVWYKWEFEYWGQGTQVSVSS too.
OUTPUT: high polyreactivity

INPUT: What do we get for QVQLVESVGGLLQAGGSLRVSCAASGFTFYRYAMGWYRQAPGKERELVAAITRGGSTNYADSVKRRFTISRDNAKKTVYLQMNSLKPEDTAVYYCAVVSQRTPLRGDYWGQGTQVTVSS ?
OUTPUT: high polyreactivity

INPUT: Param item: QVQLVESGGGLVQAGGSLRLSCAASGGTFVGNAMGWYRQAPGKERELVAAISTNSGSTYYADSVKGRFTISRDNAKNTVYLQMNSLKPEDTAVYYCATRNSSKRRGYYYWGQGTQVTVSS
OUTPUT: high polyreactivity

INPUT: Next sequence: QVQLVESGGGLVQAGGSLRLSCAASGRIFGYNAMGWYRQAPGKERELVAAITQSGGTTYYADSVKGRFTISRDYAKNTVYLQMNSLKPEDTAVYYCARGTRYPNNPFDYWGLGTQVTVSS
OUTPUT: high polyreactivity

INPUT: Next sequence up: QVQLVESGGGLVQAGGSLRLTCAASGRIFGWYAMGWYRQAPGKEREFVAAITVTGGSTYYADSVKGRFTISRDNAKNTVYLQMNSLKPEDTAVYYCAADRWYTRTGFDYWGQGTQVTVSS
OUTPUT: low polyreactivity

INPUT: Ok, now QVQLVKSGGGLVQAGGSLRLSCAASGSTFYNDMGGYIHSPGKEIELVAAISIGGSTYYADSVKGRFTISRDNANHTVYLQMSCLKPEDTAVYYCAAVWYTSRQKYDYWGQGTQVTVTS
OUTPUT: low polyreactivity

INPUT: And QVQLVESGGGLVQAGGSLRISCAASGFIFWYYTMGRYIQAPGKERELVAAINSGGSTNYADSVKGRFTISRDNAKNTVYLQMNSLKPEDTAVYYCAALVCYSGELFYYWGQGTQVTVSS ?
OUTPUT: low polyreactivity

INPUT: Another sequence to check: QVQLVESGGGLVQAGGSLRLSCAASGFIFEPYAMGWYRQAPGKERELVAAISSGGSTYADSVKGRFTISRDNAKNTVYLQMNSLKPEDTAVYYCAADSYYSVWGFYYWGQGTQVTVSS
OUTPUT: low polyreactivity

INPUT: Repeat for the following sequence: QVQLVESGGGLVQAGGSLRLSCASSGFTFRYYTMGLYRQAPGKERELVASITWRGGSTYYADSVKGRFTISRDNAKNTVYLQMNCLKPEDTAVYYCNAERPYQYYPGIYRWYYYWGQGTQVTVSS
OUTPUT: low polyreactivity

INPUT: Continue with PVQLVESGGGLVQAGGSLRLSCAASGSTFRFYTMGWYRQAPGKERELVAAISGSGGSTYYADSVKGRFTISRDNAKNTVYLQMNSLIPEDPAVYFCAADKSRNASHRGYWGQGTQVTVSS
OUTPUT: low polyreactivity
